Data origin, for the record: patent US20200399262A1

Test system: JAR
Assay: Cell viability panel, ATPlite 1Step
Format: cell-based
Details: Gestational choriocarcinoma, 72 h exposure, read-out: Compound EC50
pEC50: −log10 of the molar value.
assay.metric: pEC50

Record summary for "CN(C)CCCS(=O)(=O)N1C/C(=C\c2ccc(C#N)cc2)C(=O)/C(=C/c2ccc(C#N)cc2)C1" : reported pEC50 = > 6.52

* * *

System: DU4475
Assay: Cell viability panel, ATPlite 1Step
Format: cell-based
Conditions: Homo sapiens, DU-4475, Breast carcinoma, 72 h exposure, read-out: Compound EC50
assay.metric: EC50

Record summary for "CN(C)CCCS(=O)(=O)N1C/C(=C\c2ccc(C#N)cc2)C(=O)/C(=C/c2ccc(C#N)cc2)C1" : reported EC50 = 300 to 1000 nM

* * *

System: HOP-92
Assay: Cell viability panel, CyQUANT Direct
Type: cell-based
Conditions: Homo sapiens, Lung cancer, 48 hours, read-out: Compound EC50
pEC50: −log10 of the molar value.
assay.metric: pEC50

Record summary for "CN(C)CCCS(=O)(=O)N1C/C(=C\c2ccc(C#N)cc2)C(=O)/C(=C/c2ccc(C#N)cc2)C1" : reported pEC50 = 6.00 to 6.52

* * *

Test system: T24
Assay: Cell viability panel, ATPlite 1Step
Assay type: cell-based
Settings: Homo sapiens, T-24, Bladder carcinoma, 72 h exposure, read-out: Compound EC50
pEC50: −log10 of the molar value.
assay.metric: pEC50

Record summary for CN(C)CCCS(=O)(=O)N1C/C(=C\c2ccc(C#N)cc2)C(=O)/C(=C/c2ccc(C#N)cc2)C1 [Compound AA] : reported pEC50 = > 6.52

* * *

Test system: HT-29
Test: NCI60 screen cytotoxicity
Assay type: cell-based
Details: Homo sapiens, Colon cancer, read-out: Compound B1 EC50
assay.metric: EC50

Record summary for "CN(C)CC(=O)NCC(=O)N1C/C(=C\c2ccc(C#N)cc2)C(=O)/C(=C/c2ccc(C#N)cc2)C1" : reported EC50 = 300 to 1000 nM

* * *

System: NCI-H23
Assay: NCI60 screen cytotoxicity
Assay type: cell-based
Conditions: Homo sapiens, Lung cancer, read-out: Compound B1 EC50
assay.metric: EC50

Reading of EC50 for CN(C)CC(=O)NCC(=O)N1C/C(=C\c2ccc(C#N)cc2)C(=O)/C(=C/c2ccc(C#N)cc2)C1 [Compound B1] with NCI-H23: < 0.3 µM

* * *

System: RS4-11
Assay: Cell viability panel, ATPlite 1Step
Assay type: cell-based
Details: Homo sapiens, B acute lymphoblastic leukemia, 72 h exposure, read-out: Compound EC50
assay.metric: EC50

Record summary for CN(C)CCCS(=O)(=O)N1C/C(=C\c2ccc(C#N)cc2)C(=O)/C(=C/c2ccc(C#N)cc2)C1 [Compound AA] : reported EC50 = < 300 nM

* * *

System: OVCAR-4
Assay: Cell viability panel, CyQUANT Direct
Assay type: cell-based
Conditions: Homo sapiens, Ovarian Cancer, 48 hours, read-out: Compound EC50
assay.metric: EC50

Record summary for CN(C)CCCS(=O)(=O)N1C/C(=C\c2ccc(C#N)cc2)C(=O)/C(=C/c2ccc(C#N)cc2)C1 [Compound AA] : reported EC50 = 0.3 to 1 µM

* * *

Test system: RKO
Assay: Cell viability panel, ATPlite 1Step
Format: cell-based
Conditions: Homo sapiens, Colon carcinoma, 72 h exposure, read-out: Compound EC50
pEC50: −log10 of the molar value.
assay.metric: pEC50

Reading of pEC50 for "CN(C)CCCS(=O)(=O)N1C/C(=C\c2ccc(C#N)cc2)C(=O)/C(=C/c2ccc(C#N)cc2)C1" with RKO: > 6.52

* * *

System: SW872
Assay: Cell viability panel, ATPlite 1Step
Type: cell-based
Settings: Homo sapiens, Liposarcoma, 72 h exposure, read-out: Compound EC50
assay.metric: EC50

Record summary for CN(C)CCCS(=O)(=O)N1C/C(=C\c2ccc(C#N)cc2)C(=O)/C(=C/c2ccc(C#N)cc2)C1 [Compound AA] : reported EC50 = < 300 nM

* * *

Tested on: U266
Assay: Cell viability, ATPlite 1-step, MM cell lines
Type: cell-based
Conditions: Homo sapiens, U-266; U266 MM cell line; 48 hours; read-out: Compound EC50
Listing: EC50 of selected molecules

Solved cases (10 shown):
CC(C)C(Nc1ccccc1)C(=O)N1C/C(=C\c2ccc(Cl)c(Cl)c2)C(=O)/C(=C/c2ccc(Cl)c(Cl)c2)C1 (centres unmarked)	< 300 nM
CC(=O)N[C@H](CO)C(=O)N1C/C(=C\c2ccc(C#N)cc2)C(=O)/C(=C/c2ccc(C#N)cc2)C1	300 to 1000 nM
O=C1/C(=C/c2ccc(Cl)c(Cl)c2)CN(C(=O)C(O)Cc2ccccc2)C/C1=C\c1ccc(Cl)c(Cl)c1 (centres unmarked)	300 to 1000 nM
N[C@@H](Cc1cccc(O)c1)C(=O)N1C/C(=C\c2ccc(Cl)c(Cl)c2)C(=O)/C(=C/c2ccc(Cl)c(Cl)c2)C1	< 300 nM
O=C1/C(=C/c2ccc(Cl)c(Cl)c2)CN(C(=O)C2COCCN2)C/C1=C\c1ccc(Cl)c(Cl)c1 (centres unmarked)	< 300 nM
C#CCN(C)CC(=O)NCC(=O)N1C/C(=C\c2ccc(C#N)cc2)C(=O)/C(=C/c2ccc(C#N)cc2)C1	< 300 nM
O=C1/C(=C/c2ccc(Cl)c(Cl)c2)CN(C(=O)C(Cc2ccccc2)C(=O)O)C/C1=C\c1ccc(Cl)c(Cl)c1 (centres unmarked)	≥ 1000 nM
N[C@@H](Cc1ccccc1)C(=O)N1C/C(=C\c2ccc(Cl)c(Cl)c2)C(=O)/C(=C/c2cc(Cl)ccc2Cl)C1	< 300 nM
N[C@@H](Cc1ccccc1)C(=O)N1C/C(=C\c2ccccc2)C(=O)/C(=C/c2ccc(Cl)c(Cl)c2)C1	300 to 1000 nM
N[C@@H](Cc1ccccn1)C(=O)N1C/C(=C\c2ccc(Cl)c(Cl)c2)C(=O)/C(=C/c2ccc(Cl)c(Cl)c2)C1	< 300 nM

We now examine a further molecule.
Reading of EC50 for "CC(=O)NCC(=O)N1C/C(=C\c2ccc(Cl)c(Cl)c2)C(=O)/C(=C/c2ccc(Cl)c(Cl)c2)C1" with U266: < 300 nM

* * *

Test system: SR
Experiment: Cell viability panel, ATPlite 1Step
Assay type: cell-based
Conditions: Homo sapiens, Anaplastic large cell lymphoma, 72 h exposure, read-out: Compound EC50
Experimental: Cell viability panel studies. Cells were diluted in the corresponding ATCC recommended medium and dispensed in a 384-well plate, depending on the cell line used, at a density of 200-6400 cells per well. For each used cell line, the optimal cell density was used. […] Following incubation at 37° C. for 48 hours with increasing concentrations of the compounds, viability was determined with CyQUANT® Direct Assay Kit (Invitrogen). […]
pEC50: −log10 of the molar value.
assay.metric: pEC50

Record summary for CN(C)CCCS(=O)(=O)N1C/C(=C\c2ccc(C#N)cc2)C(=O)/C(=C/c2ccc(C#N)cc2)C1 [Compound AA] : reported pEC50 = > 6.52

* * *

Tested on: HCT-15
Assay: Cell viability panel, ATPlite 1Step
Assay type: cell-based
Conditions: Homo sapiens, Colon adenocarcinoma, 72 h exposure, read-out: Compound EC50
assay.metric: EC50

Reading of EC50 for CN(C)CCCS(=O)(=O)N1C/C(=C\c2ccc(C#N)cc2)C(=O)/C(=C/c2ccc(C#N)cc2)C1 [Compound AA] with HCT-15: 300 to 1000 nM

* * *

Test system: COLO 829
Assay: Cell viability panel, ATPlite 1Step
Assay type: cell-based
Details: Homo sapiens, Cutaneous melanoma, 72 h exposure, read-out: Compound EC50
assay.metric: EC50

Record summary for "CN(C)CCCS(=O)(=O)N1C/C(=C\c2ccc(C#N)cc2)C(=O)/C(=C/c2ccc(C#N)cc2)C1" : reported EC50 = < 300 nM

* * *

System: A-427
Test: Cell viability panel, ATPlite 1Step
Type: cell-based
Conditions: Homo sapiens, Lung adenocarcinoma, 72 h exposure, read-out: Compound EC50
Description: Cell viability panel studies. Cells were diluted in the corresponding ATCC recommended medium and dispensed in a 384-well plate, depending on the cell line used, at a density of 200-6400 cells per well. For each used cell line, the optimal cell density was used. […] Following incubation at 37° C. for 48 hours with increasing concentrations of the compounds, viability was determined with CyQUANT® Direct Assay Kit (Invitrogen). […]
pEC50: −log10 of the molar value.
assay.metric: pEC50

Record summary for "CN(C)CCCS(=O)(=O)N1C/C(=C\c2ccc(C#N)cc2)C(=O)/C(=C/c2ccc(C#N)cc2)C1" : reported pEC50 = > 6.52

* * *

Tested on: EKVX
Assay: NCI60 screen cytotoxicity
Type: cell-based
Conditions: Homo sapiens, Lung cancer, read-out: Compound B1 EC50
assay.metric: EC50

Record summary for "CN(C)CC(=O)NCC(=O)N1C/C(=C\c2ccc(C#N)cc2)C(=O)/C(=C/c2ccc(C#N)cc2)C1" : reported EC50 = 300 to 1000 nM

* * *

System: T98G
Assay: Cell viability panel, ATPlite 1Step
Format: cell-based
Conditions: Homo sapiens, Glioblastoma, 72 h exposure, read-out: Compound EC50
assay.metric: EC50

Record summary for "CN(C)CCCS(=O)(=O)N1C/C(=C\c2ccc(C#N)cc2)C(=O)/C(=C/c2ccc(C#N)cc2)C1" : reported EC50 = 300 to 1000 nM
